experiment-description: Placebo controlled, dose escalation pharmacokinetic study of oral (Z)-Endoxifen capsules (serum endoxifen; incl. accumulation ratios and dose linearity)
Format: in vivo, human
test-parameters: female, human, serum, oral, 1 mg; Day 1 hr 24; read-out: Serum concentration, Max
test-readout: concentration at 24 h (nM)
Please state the figure in nM; there is no need to write the unit.

Consider the compound CC/C(=C(\c1ccc(O)cc1)c1ccc(OCCNC)cc1)c1ccccc1 [(Z)-Endoxifen] and give its measured concentration at 24 h. 18.7

* * *

experiment-description: Placebo controlled, dose escalation pharmacokinetic study of oral (Z)-Endoxifen capsules (serum endoxifen; incl. accumulation ratios and dose linearity)
Assay type: in vivo, human
test-parameters: female, human, serum, po, 1 mg/day, Day 21; 1 mg/day oral (n = 5); read-out: Tmax (Range)
test-readout: Tmax

Return reported Tmax; argument: CC/C(=C(\c1ccc(O)cc1)c1ccc(OCCNC)cc1)c1ccccc1 [(Z)-Endoxifen] 4 to 6.05 h
